# ASSAY EXPLANATION: Phase I study CXR1002-001: plasma pharmacokinetics (LC-MS/MS)
# Type: in vivo, human
# STATED CONDITIONS: human, plasma, po, 1000 mg, Patient 042, 1000 mg weekly oral dose, Time 508 hr; read-out: Concentration (plasma level)

MOLECULE	concentration at 508 hr, µM
O=C(O)C(F)(F)C(F)(F)C(F)(F)C(F)(F)C(F)(F)C(F)(F)C(F)(F)F [CXR1002]	987

###

# ASSAY EXPLANATION: Phase I study CXR1002-001: plasma pharmacokinetics (LC-MS/MS)
# Assay type: in vivo, human
# STATED CONDITIONS: human, plasma, oral, 750 mg, Patient 028, 750 mg, person, plasma, 672 hr (Day 29); read-out: Concentration

COMPOUND STRUCTURE STRING	concentration at 672 h / µM
O=C(O)C(F)(F)C(F)(F)C(F)(F)C(F)(F)C(F)(F)C(F)(F)C(F)(F)F	522

###

# ASSAY EXPLANATION: Phase I study CXR1002-001: plasma pharmacokinetics (LC-MS/MS)
# Type: in vivo, human
# STATED CONDITIONS: human, plasma, oral, 950 mg, Patient 031, 950 mg, person, plasma, 507 hr; read-out: Concentration
# Text: PK samples, PD (fasting) samples, blood glucose, and blood triglyceride samples, were taken over a 6-week period. Dose limiting toxicity (DLT) will be based on the toxicity assessments over the first 3-week period of the repeat dosing schedule. […]

COMPOUND STRUCTURE STRING	concentration at 507 h
O=C(O)C(F)(F)C(F)(F)C(F)(F)C(F)(F)C(F)(F)C(F)(F)C(F)(F)F	861 µM

###

# ASSAY EXPLANATION: Phase I study CXR1002-001: plasma pharmacokinetics (LC-MS/MS)
# Format: in vivo, human
# STATED CONDITIONS: human, plasma, oral, 200 mg, Patient 010 Dose 200 mg; 506 hr; read-out: Concentration

MOLECULE	concentration at 506 h (µM)
O=C(O)C(F)(F)C(F)(F)C(F)(F)C(F)(F)C(F)(F)C(F)(F)C(F)(F)F [CXR1002]	207

###

# ASSAY EXPLANATION: Phase I study CXR1002-001: plasma pharmacokinetics (LC-MS/MS)
# Type: in vivo, human
# STATED CONDITIONS: human, plasma, oral, 1200 mg, Patient 035, 1200 mg, person, plasma, 508 hr; read-out: Concentration

COMPOUND STRUCTURE STRING	UNIT TEXT	concentration at 508 h
O=C(O)C(F)(F)C(F)(F)C(F)(F)C(F)(F)C(F)(F)C(F)(F)C(F)(F)F	µM	1020

###

# ASSAY EXPLANATION: Phase I study CXR1002-001: plasma pharmacokinetics (LC-MS/MS)
# Format: in vivo, human
# STATED CONDITIONS: human, plasma, oral, 950 mg, Patient 031, 950 mg, person, plasma, 171 hr; read-out: Concentration

COMPOUND STRUCTURE STRING	concentration at 171 h, µM
O=C(O)C(F)(F)C(F)(F)C(F)(F)C(F)(F)C(F)(F)C(F)(F)C(F)(F)F	463

###

# ASSAY EXPLANATION: Phase I study CXR1002-001: plasma pharmacokinetics (LC-MS/MS)
# Format: in vivo, human
# STATED CONDITIONS: human, plasma, oral, 450 mg, Patient 015 Dose 450 mg; 338 hr; read-out: Concentration

COMPOUND	concentration at 338 h (µM)
O=C(O)C(F)(F)C(F)(F)C(F)(F)C(F)(F)C(F)(F)C(F)(F)C(F)(F)F [CXR1002]	463

###

# ASSAY EXPLANATION: Phase I study CXR1002-001: plasma pharmacokinetics (LC-MS/MS)
# Format: in vivo, human
# STATED CONDITIONS: human, plasma, oral, 50 mg, Patient 004 Dose 50 mg; 168 hr (Day 8); read-out: Concentration
ENDPOINT LABEL: concentration at 168 h

COMPOUND	ENDPOINT LABEL	MEASURED RESULT
O=C(O)C(F)(F)C(F)(F)C(F)(F)C(F)(F)C(F)(F)C(F)(F)C(F)(F)F [CXR1002]	concentration at 168 h	12.8 µM

###

# ASSAY EXPLANATION: Phase I study CXR1002-001: plasma pharmacokinetics (LC-MS/MS)
# Type: in vivo, human
# STATED CONDITIONS: human, plasma, oral, 200 mg, Patient 008 Dose 200 mg; 672 hr (Day 29); read-out: Concentration

COMPOUND STRUCTURE STRING	UNIT TEXT	concentration at 672 hr
O=C(O)C(F)(F)C(F)(F)C(F)(F)C(F)(F)C(F)(F)C(F)(F)C(F)(F)F	µM	337

###

# ASSAY EXPLANATION: Phase I study CXR1002-001: plasma pharmacokinetics (LC-MS/MS)
# Type: in vivo, human
# STATED CONDITIONS: human, plasma, oral, 600 mg, Patient 018, 600 mg, person, plasma, 4 hr; read-out: Concentration

COMPOUND STRUCTURE STRING	UNIT TEXT	concentration at 4 h
O=C(O)C(F)(F)C(F)(F)C(F)(F)C(F)(F)C(F)(F)C(F)(F)C(F)(F)F	µM	248

###

# ASSAY EXPLANATION: Phase I study CXR1002-001: plasma pharmacokinetics (LC-MS/MS)
# Assay type: in vivo, human
# STATED CONDITIONS: human, plasma, oral, 450 mg, Patient 016 Dose 450 mg; 506 hr; read-out: Concentration

COMPOUND	concentration at 506 h / µM
O=C(O)C(F)(F)C(F)(F)C(F)(F)C(F)(F)C(F)(F)C(F)(F)C(F)(F)F [CXR1002]	693

###

# ASSAY EXPLANATION: Phase I study CXR1002-001: plasma pharmacokinetics (LC-MS/MS)
# Assay type: in vivo, human
# STATED CONDITIONS: human, plasma, oral, 300 mg, Patient 012 Dose 300 mg; 360 hr (Day 16); read-out: Concentration
# Description: PK samples, PD (fasting) samples, blood glucose, and blood triglyceride samples, were taken over a 6-week period. Dose limiting toxicity (DLT) will be based on the toxicity assessments over the first 3-week period of the repeat dosing schedule. […]

COMPOUND STRUCTURE STRING	concentration at 360 h, µM
O=C(O)C(F)(F)C(F)(F)C(F)(F)C(F)(F)C(F)(F)C(F)(F)C(F)(F)F	218

###

# ASSAY EXPLANATION: Phase I study CXR1002-001: plasma pharmacokinetics (LC-MS/MS)
# Format: in vivo, human
# STATED CONDITIONS: human, plasma, oral, 200 mg, Patient 009 Dose 200 mg; Day 92
# Source text: PK samples, PD (fasting) samples, blood glucose, and blood triglyceride samples, were taken over a 6-week period. Dose limiting toxicity (DLT) will be based on the toxicity assessments over the first 3-week period of the repeat dosing schedule. […]

COMPOUND	concentration at 92 day / µM
O=C(O)C(F)(F)C(F)(F)C(F)(F)C(F)(F)C(F)(F)C(F)(F)C(F)(F)F [CXR1002]	456

###

# ASSAY EXPLANATION: Phase I study CXR1002-001: plasma pharmacokinetics (LC-MS/MS)
# Type: in vivo, human
# STATED CONDITIONS: human, plasma, oral, 950 mg, Patient 029, 950 mg, person, plasma, 192 hr (Day 9); read-out: Concentration

COMPOUND	concentration at 192 h / µM
O=C(O)C(F)(F)C(F)(F)C(F)(F)C(F)(F)C(F)(F)C(F)(F)C(F)(F)F [CXR1002]	606

###

# ASSAY EXPLANATION: Phase I study CXR1002-001: plasma pharmacokinetics (LC-MS/MS)
# Assay type: in vivo, human
# STATED CONDITIONS: human, plasma, oral, 100 mg, Patient 005 Dose 100 mg; 170 hr; read-out: Concentration
ENDPOINT LABEL: concentration at 170 h

COMPOUND STRUCTURE STRING	MEASURED RESULT
O=C(O)C(F)(F)C(F)(F)C(F)(F)C(F)(F)C(F)(F)C(F)(F)C(F)(F)F	42.9 µM

###

# ASSAY EXPLANATION: Phase I study CXR1002-001: plasma pharmacokinetics (LC-MS/MS)
# Format: in vivo, human
# STATED CONDITIONS: human, plasma, oral, 50 mg, Patient 001 Dose 50 mg; Day 268

MOLECULE	concentration at 268 day / µM
O=C(O)C(F)(F)C(F)(F)C(F)(F)C(F)(F)C(F)(F)C(F)(F)C(F)(F)F [CXR1002]	268
